Record form. Attribute: IC50. Fill in for each entry.
# SUBJECT_OF_TEST: Phospholipase D2 (Homo sapiens) (UniProt O14939)
# Sequence (O14939 whole entry, looked up): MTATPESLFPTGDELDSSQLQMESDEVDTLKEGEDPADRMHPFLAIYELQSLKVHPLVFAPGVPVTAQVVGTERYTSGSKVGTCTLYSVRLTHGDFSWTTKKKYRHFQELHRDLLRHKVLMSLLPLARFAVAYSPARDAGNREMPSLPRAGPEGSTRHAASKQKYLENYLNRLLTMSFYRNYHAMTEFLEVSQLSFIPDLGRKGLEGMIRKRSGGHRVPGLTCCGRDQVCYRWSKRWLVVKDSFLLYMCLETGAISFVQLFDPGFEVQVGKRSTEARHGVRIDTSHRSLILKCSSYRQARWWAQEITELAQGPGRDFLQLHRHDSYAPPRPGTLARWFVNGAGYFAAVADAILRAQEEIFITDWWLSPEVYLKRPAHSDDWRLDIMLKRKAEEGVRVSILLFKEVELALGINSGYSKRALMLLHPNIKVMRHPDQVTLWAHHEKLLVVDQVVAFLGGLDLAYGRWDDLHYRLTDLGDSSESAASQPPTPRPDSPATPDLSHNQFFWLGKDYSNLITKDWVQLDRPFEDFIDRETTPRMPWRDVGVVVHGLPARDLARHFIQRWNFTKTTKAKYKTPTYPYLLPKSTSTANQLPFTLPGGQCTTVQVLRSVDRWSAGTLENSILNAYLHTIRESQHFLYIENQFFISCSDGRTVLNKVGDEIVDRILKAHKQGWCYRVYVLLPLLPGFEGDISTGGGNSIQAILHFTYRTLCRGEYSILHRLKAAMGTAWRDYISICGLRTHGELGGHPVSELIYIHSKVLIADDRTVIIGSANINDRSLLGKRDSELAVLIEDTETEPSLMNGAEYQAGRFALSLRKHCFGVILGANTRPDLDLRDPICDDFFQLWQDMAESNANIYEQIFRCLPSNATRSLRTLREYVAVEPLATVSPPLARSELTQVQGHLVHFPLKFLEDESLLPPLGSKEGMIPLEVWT
# Sequence (O14939 whole entry, looked up): as above
# TEST_METHOD_NOTES: PLD2 inhibitor potency in cells, dose response (AID 602147)
# RUN_CONDITIONS: cellular PLD2 activity assay, concentration response

O=C(NCCN1CCC2(CC1)C(=O)NCN2c1ccc(Br)cc1)c1ccc2ccccc2c1
350 nM
O=C(NCCN1CCC2(CC1)C(=O)NCN2c1ccc(Br)cc1)c1cc2cc(F)ccc2[nH]1
100 nM

Please turn your attention to the following entry.
I'd like to know its IC50. The compound in question is O=C(NCCN1CCC2(CC1)C(=O)NCN2c1ccc(F)c(F)c1)c1ccc(F)cc1
660 nM
